Experiment: ATG_ISRE_CIS: Attagene CIS-FACTORIAL HepG2 Assay for human Interferon Regulatory Factor 1 (IRF1) binding to an Interferon-Stimulated Response Element (ISRE) (AID 2282948)
Details: HepG2 ISRE cis-reporter (Attagene), mRNA transcription readout; actives raise or lower the signal
Experimental: ATG_CIS is a cell-based, multiplexed-readout assay that uses HepG2, a human liver cell line, with measurements taken at 24 hours after chemical dosing in a 24-well plate.ATG_ISRE_CIS is one of 52 assay component(s) measured or calculated from the ATG_CIS assay. […] This assay endpoint, ATG_ISRE_CIS, was analyzed with bidirectional fitting relative to DMSO as the negative control and baseline of activity. […]
Calls of active or inactive are those of the source. Rule for the calls: active = hit-call score of the fitted dose curve at least 0.9, where 1 is the maximum; inactive = score below 0.9.
# valid calls are T = active, F = inactive; nothing else

Any idea what this test logged for Cc1ccc(N)cc1 ? F

Next compound: Nc1ccc(Cl)cc1N F

Next compound: CCCCCOC(=O)c1ccccc1C(=O)OCCCCC F

Next compound: CC(C)(OOC(C)(C)c1ccccc1)c1ccccc1 T

Next compound: CCCCCCCCOC(=O)c1ccc(C(=O)OCCCCCCCC)c(C(=O)OCCCCCCCC)c1 F

Next compound: Clc1ccccc1Cl F

Next compound: c1ccc(N=Nc2ccccc2)cc1 F

Next compound: c1ccc2c(c1)-c1cccc3cccc-2c13 F

Next compound: CC(C)COC(=O)c1ccccc1C(=O)OCC(C)C T

Next compound: CC(C)(C)C(O)(CCc1ccc(Cl)cc1)Cn1cncn1 (stereo not given) F

Next compound: [Cl-].[Cl-].[Hg+2] F

Next compound: CCN(CC)N=O F

Next compound: Cn1cc(-c2ccccc2)c(=O)c(-c2cccc(C(F)(F)F)c2)c1 T

Next compound: O=P(OCCCl)(OCCCl)OCCCl F

Next compound: CCC(C)c1ccc(O)cc1 (stereo not given) F

Next compound: O=C(O)C1C2CCC(O2)C1C(=O)O (stereo not given) T

Next compound: CCOC(=O)[C@]1(c2ccccc2)Oc2ccccc2[C@@H]1N T

Next compound: COP(=S)(OC)SCN1C(=O)c2ccccc2C1=O F

Next compound: Cc1ccc([N+](=O)[O-])cc1 F

Next compound: OCCOCCO F

Next compound: CN(C)c1ccccc1 F

Next compound: OCCCl F

Next compound: CCCCCCCCn1sccc1=O T

Next compound: CCCCOC(=O)c1ccccc1C(=O)OCc1ccccc1 F

Next compound: Cc1cccc(N)c1N F

Next compound: Nc1ccc(Oc2ccc(N)cc2)cc1 F

Next compound: CCN(CC)CCO F

Next compound: COC(=O)Nc1nc2ccccc2[nH]1 F

Next compound: O=C(N[C@H](c1ccccc1)[C@@H]1CN2CCC1CC2)c1c(Cl)ccc(C(F)(F)F)c1Cl F

Next compound: CCCCC(CC)COC(=O)c1ccc(C(=O)OCC(CC)CCCC)c(C(=O)OCC(CC)CCCC)c1 (stereo not given) F

Next compound: ClC1=C(Cl)[C@]2(Cl)[C@H]3[C@H]([C@@H]4C=C[C@H]3C4)[C@@]1(Cl)C2(Cl)Cl F

Next compound: O=C(Nc1ccccc1)c1ccccc1I F

Next compound: CN(C)[C@@H]1C(=O)C(C(N)=O)=C(O)[C@@]2(O)C(=O)C3=C(O)c4c(O)cccc4[C@@](C)(O)[C@H]3C[C@@H]12 F

Next compound: O=C1CCCO1 F

Next compound: c1ccc2c(c1)oc1ccccc12 F

Next compound: Clc1ccc(Cl)c(Cl)c1 F

Next compound: CCOc1cccc(C2(N3CCN(c4ccccc4)CC3)CCC(C)CC2)c1 (stereo not given) F

Next compound: CCC12COCN1COC2 F

Next compound: COC(=O)c1ccccc1N F

Next compound: CS(=O)(=O)NC(=O)c1cc(Oc2ccc(C(F)(F)F)cc2Cl)ccc1[N+](=O)[O-] F
